substrate: O=C(O)C=C(O)C(=O)O; experiment: purified protein; settings: pH 7.5, 22 °C, 10 mM potassium phosphate, 0.3 mM NADH, malate dehydrogenase, OAA added in dry acetone
reported.metric: Km (µM)
Report the figure in µM without appending any unit label.

Input Ec YcgM (Escherichia coli K-12) (protein) MYQHHNWQGALLDYPVSKVVCVGSNYAKHIKEMGSAVPEEPVLFIKPETALCDLRQPLAIPSDFGSVHHEVELAVLIGATLRQATEEHVRKAIAGYGVALDLTLRDVQGKMKKAGQPWEKAKAFDNSCPLSGFIPAAEFTGDPQNTTLSLSVNGEQRQQGTTADMIHKIVPLIAYMSKFFTLKAGDVVLTGTPDGVGPLQSGDELTVTFDGHSLTTRVL . Output Km: 26.9

Input Hs FAHD1 (Homo sapiens) (protein) MGIMAASRPLSRFWEWGKNIVCVGRNYADHVREMRSAVLSEPVLFLKPSTAYAPEGSPILMPAYTRNLHHELELGVVMGKRCRAVPEAAAMDYVGGYALCLDMTARDVQDECKKKGLPWTLAKSFTASCPVSAFVPKEKIPDPHKLKLWLKVNGELRQEGETSSMIFSIPYIISYVSKIITLEEGDIILTGTPKGVGPVKENDEIEAGIHGLVSMTFKVEKPEY . Output Km: 15.8

Entry Sc FMP41 (Saccharomyces cerevisiae S288C) (protein) MSYNYLKAARKIICIGRNYAAHIKELNNSTPKQPFFFLKPTSSIVTPLSSSLVKTTRPANSTFNGLNEDGTNPGPIFIPRGVKVHHEIELALIVSKHLSNVTKMKPEEVYDSISGVALALDLTARNVQDEAKKKGLPWTISKGFDTFMPISAIVSREKFSSYKSNLQDIFRVKCSVNGQLRQDGGTNLMLHPLHKILQHISTMISLEPGDIILTGTPAGVGELKPGDRVHCELLQNNDNIVDMNFECENRPGPYEFRET — recorded Km = 219
